- test target: Tubulin (Homo sapiens) (UniProt P68371+Q9H4B7+P0DPH7+P68366+Q13509+Q71U36+P04350+Q3ZCM7+P07437+P68363+Q9BQE3+Q6PEY2+Q13885+Q9BVA1+Q9BUF5)
- measurement description: Cytotoxicity against multidrug resistant breast cancer MCF7/ADR cell line relative to paclitaxel
- Assay type: functional, cell-based
- measurement parameters: NCI/ADR-RES
Ratio ED50 for assorted molecules

chemical string	Ratio ED50
CC(=O)O[C@@]12CO[C@@H]1C[C@H](O)[C@@]1(C)C(=O)[C@@H](O)C3=C(C)[C@@H](OC(=O)[C@H](O)[C@@H](NC(=O)c4ccccc4)c4ccccc4)C[C@@](O)([C@@H](OC(=O)c4ccccc4)[C@H]21)C3(C)C	0.7
CCC(=O)O[C@@H]1C(=O)[C@@]2(C)[C@H]([C@H](OC(=O)c3ccccc3)[C@]3(O)C[C@H](OC(=O)[C@H](O)[C@@H](NC(=O)c4ccccc4)c4ccccc4)C(C)=C1C3(C)C)[C@]1(OC(C)=O)CO[C@@H]1C[C@@H]2O	1.1
CCCCCC(=O)N[C@@H](c1ccccc1)[C@@H](O)C(=O)O[C@H]1C[C@@]2(O)[C@@H](OC(=O)c3ccccc3)[C@@H]3[C@]4(OC(C)=O)CO[C@@H]4C[C@H](O)[C@@]3(C)C(=O)[C@H](O)C(=C1C)C2(C)C	3.8
CC(=O)O[C@@]12CO[C@@H]1C[C@H](O)[C@@]1(C)C(=O)[C@H](O)C3=C(C)[C@@H](OC(=O)[C@H](O)[C@@H](NC(=O)c4ccccc4)c4ccccc4)C[C@@](O)([C@@H](OC(=O)c4ccccc4)[C@H]21)C3(C)C	6.6
CCCCCC(=O)N[C@@H](c1ccccc1)[C@@H](O)C(=O)O[C@H]1C[C@@]2(O)[C@@H](OC(=O)c3ccccc3)[C@@H]3[C@]4(OC(C)=O)CO[C@@H]4C[C@H](O)[C@@]3(C)C(=O)[C@@H](O)C(=C1C)C2(C)C	3.1
CC(=O)O[C@@H]1C(=O)[C@@]2(C)[C@H]([C@H](OC(=O)c3ccccc3)[C@]3(O)C[C@H](OC(=O)[C@H](O)[C@@H](NC(=O)c4ccccc4)c4ccccc4)C(C)=C1C3(C)C)[C@]1(OC(C)=O)CO[C@@H]1C[C@@H]2O	1.3
CCCCCC(=O)N[C@@H](c1ccccc1)[C@@H](O)C(=O)O[C@H]1C[C@@]2(O)[C@@H](OC(=O)c3ccccc3)[C@@H]3[C@]4(OC(C)=O)CO[C@@H]4C[C@H](O)[C@@]3(C)C(=O)[C@H](OC(C)=O)C(=C1C)C2(C)C	0.48
CCCCCC(=O)N[C@@H](c1ccccc1)[C@@H](O)C(=O)O[C@H]1C[C@@]2(O)[C@@H](OC(=O)c3ccccc3)[C@@H]3[C@]4(OC(C)=O)CO[C@@H]4C[C@H](O)[C@@]3(C)C(=O)[C@@H](OC(C)=O)C(=C1C)C2(C)C	1.6
CCCCCC(=O)N[C@@H](c1ccccc1)[C@@H](O)C(=O)O[C@H]1C[C@@]2(O)[C@@H](OC(=O)c3ccccc3)[C@@H]3[C@]4(OC(C)=O)CO[C@@H]4C[C@H](O)[C@@]3(C)C(=O)[C@@H](OC(=O)CC)C(=C1C)C2(C)C	2.9

----------
Measured Ratio ED50, listed per entry for reference.
- test target: Tubulin (Homo sapiens) (UniProt P68371+Q9H4B7+P0DPH7+P68366+Q13509+Q71U36+P04350+Q3ZCM7+P07437+P68363+Q9BQE3+Q6PEY2+Q13885+Q9BVA1+Q9BUF5)
- measurement description: Activity in tubulin assembly assay relative to paclitaxel
- Type: functional

chemical string	Ratio ED50
CCC(=O)O[C@@H]1C(=O)[C@@]2(C)[C@H]([C@H](OC(=O)c3ccccc3)[C@]3(O)C[C@H](OC(=O)[C@H](O)[C@@H](NC(=O)c4ccccc4)c4ccccc4)C(C)=C1C3(C)C)[C@]1(OC(C)=O)CO[C@@H]1C[C@@H]2O	4.1
CCCCCC(=O)N[C@@H](c1ccccc1)[C@@H](O)C(=O)O[C@H]1C[C@@]2(O)[C@@H](OC(=O)c3ccccc3)[C@@H]3[C@]4(OC(C)=O)CO[C@@H]4C[C@H](O)[C@@]3(C)C(=O)[C@@H](OC(=O)CC)C(=C1C)C2(C)C	2.1
